Origin of values: patent US20220281848A1

# Test system: plants
# assay.details: Test D pre-emergence, other plants of Tables D1 and D3
# Assay type: in vivo
# condition: BRAPL; preemergent; rate 130; 20 DAA
Attribute: damage to plant (100=total damage to plant; 0=no damage to plant), BRAPL
parameter: damage to plant (100=total damage to plant; 0=no damage to plant), BRAPL

> print(dat)
                                   compound  measured
1  CN1CC(c2cc(C(F)(F)F)n(C)n2)C(C(=O)Nc2ccc(F)c(F)c2F)C1=O (racemic)        80
2  CN1CC(c2cc(C(F)(F)F)n(C)n2)C(C(=O)Nc2cccc(F)n2)C1=O (racemic)        80
3  CCn1nc([C@H]2CN(C)C(=O)[C@@H]2C(=O)Nc2cccc(F)c2F)c2c(F)cccc21        80
4  CCn1nc([C@H]2CN(C)C(=O)[C@@H]2C(=O)Nc2cccc(F)c2F)c2cc(F)ccc21        80
5  CN1CC(c2cc(C(F)(F)F)n(C)n2)C(C(=O)Nc2cccc(F)c2F)C1=O (racemic)       100
6  CN1CC(c2cc(C(F)(F)F)n(C)n2)C(C(=O)Nc2ccc(F)cc2C(C)(F)F)C1=O (racemic)        80

---

# Tested on: giant foxtail (Setaria faberi, SETFA)
# assay.details: Test A pre-emergence, giant foxtail
# Type: in vivo
# condition: Pre-Emergence at 62.5 g/ha; after 13 d
Attribute: damage to plant (100=total damage; 0=no damage) SETFA
parameter: damage to plant (100=total damage; 0=no damage) SETFA

> print(dat)
                                   molecule  measured
1  CCn1nc(C2CN(C)C(=O)C2C(=O)Nc2cccc(F)c2F)c2cccc(F)c21 (racemic)        90
2  CN1CC(c2cc(C(F)(F)F)n(C)n2)C(C(=O)Nc2ccc(F)cc2C(C)(F)F)C1=O (racemic)        90
3  CN1CC(c2cc(Cl)n(C)n2)C(C(=O)Nc2cccc(F)c2F)C1=O (racemic)        80
4  CN1C[C@H](c2nn(C)c3c(Cl)cccc23)[C@@H](C(=O)Nc2cccc(F)c2F)C1=O        30
5  CN1CC(c2cc(C(F)(F)F)n(C)n2)C(C(=O)Nc2cccc(F)c2F)C1=O (stereo not drawn)         0
6  CN1CC(c2cc(C(F)(F)F)n(C)n2)C(C(=O)Nc2cccc(F)c2OC(F)(F)F)C1=O (racemic)        80
7  CN1CC(c2cc(C(F)(F)F)n(C)n2)C(C(=O)Nc2ccccc2F)C1=O (racemic)        90
8  CN1CC(c2nn(C)c(Cl)c2Br)C(C(=O)Nc2ccc(F)cc2F)C1=O (racemic)         0
9  CN1CC(c2cc(Cl)n(C)n2)C(C(=O)Nc2ccc(F)c(F)c2F)C1=O (racemic)        80

---

# Tested on: plants
# assay.details: Test D pre-emergence, other plants of Tables D1 and D3
# Assay type: in vivo
# condition: DIGSA; preemergent; rate 250; 20 DAA
Attribute: damage to plant (100=total damage to plant; 0=no damage to plant), DIGSA
parameter: damage to plant (100=total damage to plant; 0=no damage to plant), DIGSA

> print(dat)
                                   compound  measured
1  CCn1nc([C@H]2CN(C)C(=O)[C@@H]2C(=O)Nc2cccc(F)c2F)c2ccc(F)cc21        90
2  CN1CC(c2cc(C(F)(F)F)n(C)n2)C(C(=O)Nc2ccccc2F)C1=O (racemic)        90
3  CN1CC(c2cc(C(F)(F)F)n(C)n2)C(C(=O)Nc2cccc(F)c2F)C1=O (racemic)       100
4  CN1CC(c2cc(C(F)(F)F)n(C)n2)C(C(=O)Nc2ccc(F)nc2F)C1=O (racemic)       100

---

# Tested on: plants
# assay.details: Test D post-emergence, other plants of Tables D2 and D4
# Format: in vivo
# condition: LOLPE; "Cereals" Postemergent; Rates 500; evaluated after 15 d
parameter: LOLPE damage rating (100=total damage to plant; 0=no damage to plant)

> print(dat)
                                   compound  measured
1  CN1CC(c2cc(C(F)(F)F)n(C)n2)C(C(=O)Nc2ccc(F)cc2F)C1=O (racemic)         0
2  CCn1nc([C@@H]2CN(C)C(=O)[C@H]2C(=O)Nc2cccc(F)c2F)c2cccc(F)c21        50
3  COc1c(F)cccc1NC(=O)C1C(=O)N(C)CC1c1cc(C(F)(F)F)n(C)n1 (racemic)        10
4  CN1CC(c2cc(C(F)(F)F)n(C)n2)C(C(=O)Nc2cccc(F)c2C(F)(F)F)C1=O (racemic)        10
5  CN1CC(c2cc(C(F)(F)F)n(C)n2)C(C(=O)Nc2cccc(F)c2F)C1=O (racemic)         0

---

# Tested on: plants
# assay.details: Test D post-emergence, other plants of Tables D2 and D4
# Format: in vivo
# condition: GALAP; "Cereals" Postemergent; Rates 500; evaluated after 15 d
parameter: GALAP damage rating (100=total damage to plant; 0=no damage to plant)

> print(dat)
                                   compound  measured
1  CN1CC(c2cc(C(F)(F)F)n(C)n2)C(C(=O)Nc2cccc(F)n2)C1=O (racemic)        20
2  COc1c(F)cccc1NC(=O)C1C(=O)N(C)CC1c1cc(C(F)(F)F)n(C)n1 (racemic)        40
3  CN1CC(c2cc(C(F)(F)F)n(C)n2)C(C(=O)Nc2ccc(F)c(F)c2F)C1=O (racemic)        30
4  CN1CC(c2cc(C(F)(F)F)n(C)n2)C(C(=O)Nc2cccc(F)c2F)C1=O (racemic)         0
5  CN1CC(c2cc(C(F)(F)F)n(C)n2)C(C(=O)Nc2cccc(F)c2C(F)(F)F)C1=O (racemic)        20

---

Attribute: damage to plant (100=total damage to plant; 0=no damage to plant), SETFA
# Tested on: plants
# assay.details: Test D pre-emergence, other plants of Tables D1 and D3
# Type: in vivo
# condition: SETFA; preemergent; rate 130; 20 DAA
parameter: damage to plant (100=total damage to plant; 0=no damage to plant), SETFA

> print(dat)
                                   compound  measured
1  CN1C[C@H](c2nn(C)c3c(F)cccc23)[C@@H](C(=O)Nc2cccc(F)c2F)C1=O        80
2  CN1CC(c2cc(C(F)(F)F)n(C)n2)C(C(=O)Nc2ccc(F)nc2F)C1=O (racemic)        30
3  CCn1nc([C@H]2CN(C)C(=O)[C@@H]2C(=O)Nc2cccc(F)c2F)c2cc(F)ccc21        90
4  CCn1nc([C@H]2CN(C)C(=O)[C@@H]2C(=O)Nc2cccc(F)c2F)c2ccc(F)cc21        80

---

# Test system: plants
# assay.details: Test D pre-emergence, other plants of Tables D1 and D3
# Type: in vivo
# condition: IPOHE; preemergent; rate 500; 20 DAA
# Description: A formulation containing 50 g/L of the test chemical was prepared by dissolving the active ingredient in a mixture of organic solvents and emulsifier, details of which are provided in the table. This formulation was then mixed with a small, variable amount of acetone to aid dissolution, before addition of a 0.2% v/v aqueous solution of an adjuvant, as the aqueous diluent, to form an aqueous spray solution which contains a predetermined concentration of the active ingredient. […]
parameter: damage to plant (100=total damage to plant; 0=no damage to plant), IPOHE

> print(dat)
                                   molecule  experimental.system  measured
1  CN1CC(c2cc(C(F)(F)F)n(C)n2)C(C(=O)Nc2cccc(F)n2)C1=O (racemic) [Compound 24]               plants         0
2  CCn1nc([C@H]2CN(C)C(=O)[C@@H]2C(=O)Nc2cccc(F)c2F)c2ccc(F)cc21 [Compound 4]               plants        10
3  CCn1nc([C@H]2CN(C)C(=O)[C@@H]2C(=O)Nc2cccc(F)c2F)c2cc(F)ccc21 [Compound 8]               plants         0
4  CN1CC(c2cc(C(F)(F)F)n(C)n2)C(C(=O)Nc2ccc(F)c(F)c2F)C1=O (racemic) [Compound 17]               plants         0
5  CN1CC(c2cnn(C)c2C(F)(F)F)C(C(=O)Nc2cccc(F)c2F)C1=O (racemic) [Compound 25]               plants         0
6  CN1C[C@H](c2nn(C)c3c(F)cccc23)[C@@H](C(=O)Nc2cccc(F)c2F)C1=O [Compound 2]               plants         0
